Molecular target: human mAChR M1 (Homo sapiens, UniProt P11229)
Sequence (P11229 whole entry): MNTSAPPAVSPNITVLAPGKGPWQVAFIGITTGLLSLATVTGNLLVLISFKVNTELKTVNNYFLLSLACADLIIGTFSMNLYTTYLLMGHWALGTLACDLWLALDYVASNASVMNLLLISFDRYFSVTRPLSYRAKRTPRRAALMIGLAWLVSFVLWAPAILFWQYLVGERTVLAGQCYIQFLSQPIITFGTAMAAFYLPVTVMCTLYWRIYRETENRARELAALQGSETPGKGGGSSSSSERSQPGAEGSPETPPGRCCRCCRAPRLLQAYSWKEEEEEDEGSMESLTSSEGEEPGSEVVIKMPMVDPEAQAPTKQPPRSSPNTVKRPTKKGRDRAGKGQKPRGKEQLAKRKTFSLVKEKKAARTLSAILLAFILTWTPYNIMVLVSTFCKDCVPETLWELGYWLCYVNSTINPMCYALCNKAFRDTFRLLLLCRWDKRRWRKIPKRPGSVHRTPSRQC
Experiment: mAChR M1 cell-based functional assay: calcium mobilization, positive allosteric modulator mode (increase in EC20 acetylcholine response)
Details: Table 2; human M1; read-out: Human M1 EC50
Items are presented alongside their recorded pEC50.
# log scale: pEC50 equals minus log10 of the concentration in mol/L

// solved cases for pEC50 follow
COMPOUND | pEC50
CC(NC(=O)c1cc(Cc2ccc(-n3cccn3)cc2)c2sccc2n1)C1CCCO1 (stereo not shown) | 6.04
CN1CCC(NC(=O)c2cc(Cc3ccc(-c4cscn4)cc3)c3sccc3n2)CC1 | 5.75
O=C(NC12CC3CC(CC(O)(C3)C1)C2)c1cc(Cc2ccc(C(F)(F)F)nc2)c2sccc2n1 | 5.50
O=C(NC1CCOCC1)c1cc(Cc2ccc(-n3cccn3)cc2)c2sccc2n1 | 6.80
Cc1nc(-c2ccc(Cc3cc(C(=O)NC4CCCCNC4=O)nc4ccsc34)cc2)cs1 (stereo not shown) | 5.85

## Task Item Cn1cc(-c2ccc(Cc3cc(C(=O)N[C@H]4CCCCC[C@@H]4O)nc4ccsc34)cn2)cn1 : provide pEC50
## Result 8.03

## Task Fill in reported pEC50 for this entry: O=C(N[C@H]1CCC[C@@H]1O)c1cc(Cc2ccc(-c3cscn3)cc2)c2sccc2n1
## Result 7.41

---

Biological target: human mAChR M1 (Homo sapiens)
Assay: mAChR M1 cell-based functional assay: calcium mobilization, positive allosteric modulator mode (increase in EC20 acetylcholine response)
Settings: Table 2; human M1; read-out: Human M1 Emax (%)
READOUT LABEL: Emax (%)
Value expressed in %; do not type the unit.

## Task Give Emax for Cn1cc(-c2ccc(Cc3cc(C(=O)N[C@H]4CCOC[C@@H]4O)nc4ccsc34)cc2)cn1 tested on human mAChR M1 (Homo sapiens).
## Result 50.9

## Task State the measured Emax (human mAChR M1 (Homo sapiens)) of Cc1nc(-c2ccc(Cc3cc(C(=O)NC4CC(C)OC(C)C4)nc4ccsc34)cc2)co1 (centres unmarked)
## Result 75

## Task Param request: Emax | system human mAChR M1 (Homo sapiens) | item Cc1ccc(Cc2cc(C(=O)NC3CCCCNC3=O)nc3c(C)csc23)cn1 (centres unmarked)
## Result 72.5

## Task Specify the recorded Emax for Cn1cc(-c2ccc(Cc3cc(C(=O)N[C@@H]4CCCOC4)nc4ccsc34)cn2)cn1 , system: human mAChR M1 (Homo sapiens).
## Result 86.9

## Task Please tell me the measured Emax for CO[C@@H]1CCCC[C@H]1NC(=O)c1cc(Cc2ccc(-n3cccn3)cc2)c2scc(C)c2n1 ; system: human mAChR M1 (Homo sapiens).
## Result 83.3

## Task Specify Emax for CC1(C)COCCC1NC(=O)c1cc(Cc2ccc(-c3cncs3)cc2)c2sccc2n1 (centres unmarked) , system human mAChR M1 (Homo sapiens).
## Result 66.3

## Task # assay system human mAChR M1 (Homo sapiens): give Emax of Cc1nc(-c2ccc(Cc3cc(C(=O)NC4CCN(C)CC4)nc4ccsc34)cc2)cs1
## Result 72.1

## Task Please respond with reported Emax (system human mAChR M1 (Homo sapiens)) for Cc1csc2c(Cc3ccc(-c4ccn(C)n4)cc3)cc(C(=O)N[C@@H]3CCOC3)nc12 .
## Result 76.3

---

Target: UniProt P11229
Assay: mAChR M1 cell-based functional assay: calcium mobilization, positive allosteric modulator mode (increase in EC20 acetylcholine response)
Settings: Table 2; human M1; read-out: Human M1 EC50
This section presents molecules with their documented log10(EC50) values.
Recorded EC50 (log10, nM)

MOLECULE | RECORDED RESULT
Cc1nc(-c2ccc(Cc3cc(C(=O)N[C@@H]4CCCC[C@H]4O)nc4ccsc34)cc2)co1 [Compound 168] | 1.93
Cc1ccc(Cc2cc(C(=O)NC3CCCCNC3=O)nc3c(C)csc23)cn1 (centres unmarked) [Compound 111] | 3.38
Cc1csc2c(Cc3ccc(-n4cccn4)cc3)cc(C(=O)NC[C@H]3CCCO3)nc12 [Compound 322] | 2.79
Cn1ccc2nc(C(=O)N[C@H]3CCCCC[C@@H]3O)cc(Cc3ccc(-c4cscn4)cc3)c21 [Compound 456] | 2.11
CC1CC(NC(=O)c2cc(Cc3ccc(-c4cnn(C)c4)nc3)c3sccc3n2)CC(C)O1 (centres unmarked) [Compound 335] | 2.20

## Task Annotate the molecule O=C(NC1CCCCNC1=O)c1cc(Cc2ccc(C(F)(F)F)nc2)c2sccc2n1 (centres unmarked) [Compound 98] with its measured log10(EC50).
## Result 3.78

## Task In one line, give reported log10(EC50) of the entry CC1(C)COCCC1NC(=O)c1cc(Cc2ccc(-c3cncs3)cc2)c2sccc2n1 (centres unmarked) [Compound 390] .
## Result 2.97

## Task Specify reported log10(EC50) for the molecule shown: Cn1cc(-c2cc(F)c(Cc3cc(C(=O)N[C@H]4CCC[C@@H]4O)nc4ccsc34)c(F)c2)cn1 [Compound 58]
## Result 3.78

---

Molecular target: human mAChR M1 (Homo sapiens, UniProt P11229)
Experiment: mAChR M1 cell-based functional assay: calcium mobilization, positive allosteric modulator mode (increase in EC20 acetylcholine response)
Conditions: Table 2; human M1; read-out: Human M1 EC50
Attribute: EC50
Your answer should be a plain number; it is taken to be in nM.

In the examples that follow, each entry is paired with its recorded EC50.
COMPOUND | READOUT LABEL | MEASURE UNIT | RECORDED RESULT
Cc1ccc(Cc2cc(C(=O)NC3CCOCC3)nc3c(C)csc23)cn1 [Compound 102] | EC50 | nM | 2700
O=C(NC1COC1)c1cc(Cc2ccc(-c3nccs3)cc2)c2sccc2n1 [Compound 365] | EC50 | nM | 1350
Cn1cc(-c2ccc(Cc3cc(C(=O)N[C@H]4COCC[C@@H]4O)nc4ccsc34)c(F)c2)cn1 [Compound 53] | EC50 | nM | 3070
CC1CC(NC(=O)c2cc(Cc3ccc(-c4cnn(C)c4)cc3)c3sccc3n2)CC(C)O1 (centres unmarked) [Compound 380] | EC50 | nM | 287
Cn1cc(-c2ccc(Cc3cc(C(=O)NC4COC4)nc4ccsc34)cn2)cn1 [Compound 341] | EC50 | nM | 1690

## Task For the compound Cc1csc2c(Cc3ccc(-n4cccn4)cc3)cc(C(=O)N[C@H]3CC[C@@H]3O)nc12 [Compound 113] , give its reported EC50.
## Result 985

## Task Identify the reported EC50 for the following entry. Cn1cc(-c2ccc(Cc3cc(C(=O)NC4CCOC(C)(C)C4)nc4ccn(C)c34)cn2)cn1 (centres unmarked) [Compound 472]
## Result 422

## Task Look up and state reported EC50 for Cn1ncc2nc(C(=O)N[C@H]3CCCC[C@@H]3O)cc(Cc3ccc(-c4cscn4)cc3)c21 [Compound 492]
## Result 504

---

Emax overview
Biological target: human mAChR M1 (Homo sapiens)
Test: mAChR M1 cell-based functional assay: calcium mobilization, positive allosteric modulator mode (increase in EC20 acetylcholine response)
Conditions: Table 2; human M1; read-out: Human M1 Emax (%)
Your answer is read as %, so omit the unit and give the number.

Worked examples follow.
COMPOUND | TARGET OR SYSTEM | READOUT LABEL | RECORDED RESULT
Cn1ccc2nc(C(=O)N[C@H]3CCCCC[C@@H]3O)cc(Cc3ccc(-c4cscn4)cc3)c21 [Compound 456] | human mAChR M1 (Homo sapiens) | Emax | 67.9
Cn1ncc2nc(C(=O)NC[C@H]3CCCO3)cc(Cc3ccc(-n4cccn4)cc3)c21 [Compound 502] | human mAChR M1 (Homo sapiens) | Emax | 67.2
O=C(N[C@@H]1CCCCC[C@H]1O)c1cc(Cc2ccc(C(F)(F)F)nc2)c2sccc2n1 [Compound 94] | human mAChR M1 (Homo sapiens) | Emax | 84.6
Cc1nc(-c2ccc(Cc3cc(C(=O)NC4CCN(C)CC4)nc4ccsc34)cc2)co1 [Compound 164] | human mAChR M1 (Homo sapiens) | Emax | 74.6
O=C(N[C@H]1CC[C@@H]1O)c1cc(Cc2ccc(-c3cncs3)cc2)c2sccc2n1 [Compound 405] | human mAChR M1 (Homo sapiens) | Emax | 73.5
COCC(C)NC(=O)c1cc(Cc2ccc(-c3cnn(C)c3)nc2)c2sccc2n1 (centres unmarked) [Compound 363] | human mAChR M1 (Homo sapiens) | Emax | 85.2
Cn1cc(-c2ccc(Cc3cc(C(=O)NC4CCOCC4(C)C)nc4ccsc34)cc2)cn1 (centres unmarked) [Compound 379] | human mAChR M1 (Homo sapiens) | Emax | 53.9

// moving on: another record for Emax
## Task Quickly give me recorded Emax for O=C(NC1CCC1)c1cc(Cc2ccc(-n3cccn3)cc2)c2sccc2n1 [Compound 436]
## Result 69.1
